Tested on: BaF3
ASSAY_METRIC: GI50 (nM)
Lab book: enter the figure in nM, no units written.

Example results:
C=CC(=O)Nc1cc(Nc2ncc(Cl)c(Nc3ccccc3C(=O)NC)n2)c(OC)cc1N1CCN(C2CCCCC2)CC1	1000
C=CC(=O)Nc1cc(Nc2ncc(Cl)c(Nc3ccccc3S(=O)(=O)C(C)C)n2)c(OC)cc1N1CCN(C(C)C)CC1	450
C=CC(=O)Nc1cc(Nc2ncc(Cl)c(Nc3ccccc3S(=O)(=O)C(C)C)n2)c(OC)cc1N1CCN(CCF)CC1	2900

Pending compound:
**Q:** So what's the measured GI50 for this one? `C=CC(=O)Nc1cc(Nc2ncc(Cl)c(Nc3ccccc3S(=O)(=O)C(C)C)n2)c(OC)cc1N1CCN(CC)CC1`
**A:** 1400
